Measured values drawn from paper PMC4958397 for this set.

MIC values by entry
# Tested on: Staphylococcus aureus ATCC 25923
# PROTOCOL: Broth microdilution MIC
# Type: cell-based
# EXPERIMENTAL_CONDITIONS: Staphylococcus aureus, ATCC25923, NA means inactive, read-out: Minimum inhibitory concentration (MIC), S. aureus
State just the number; it will be interpreted in µg/mL.

{"columns": ["COMPOUND", "MIC [µg/mL]"],
 "data": [
  ["CSc1ccc(NC(=S)NNC(=O)c2cccnc2)cc1 [Compound 6]", 250],
  ["O=C(NNC(=S)Nc1ccc(Cl)cc1Cl)c1ccncc1 [Compound 10]", 125],
  ["CCOc1ccc2nc3cc(N)ccc3c(N)c2c1 [Ethacridine lactate, ethacridine lactate, reference compound]", 31.2]
]}

What value of measured MIC is listed for O=C(NNC(=S)Nc1ccc(Cl)cc1Cl)c1ccccn1 [Compound 4] ?
31.2

O=C(NNC(=S)Nc1ccccc1Cl)c1ccccn1 [Compound 2] , same question.
31.2
